Known yeast fitness of a selection of variants
B1: tRNA (parent)
chain: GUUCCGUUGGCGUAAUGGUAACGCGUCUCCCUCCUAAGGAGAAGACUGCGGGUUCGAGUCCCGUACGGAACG

Variants of: B1
Test: yeast fitness relative to wild type (ratio to wild type); higher = fitter; tRNA-Arg(CCU), competitive growth, 37 C, YPD
This sample holds only a part of the variants without activity.

# MUTATION, yeast fitness
rows = [
    ("U16G A37G G51C C62G", "≤ 0.5"),
    ("C4G G56C A70G", "≤ 0.5"),
    ("U13G U26A", 0.987),
    ("A15U C46G C55A A69U", "≤ 0.5"),
    ("C5U A20U C61U C62U", "≤ 0.5"),
    ("C34U C66U G67A", "≤ 0.5"),
    ("U8C G44A C55U", "≤ 0.5"),
    ("A42G G67U", 0.633),
    ("C5A U59A C66A", "≤ 0.5"),
    ("C29U C46G G56A C60A C62G C66A", 0.543),
    ("C5U G48A G51C", "≤ 0.5"),
    ("U3G U8C A70C", 0.59),
    ("C5U A14C A15U G17A U26C A42U A45C", 0.508),
    ("G6A C29G U35G C61U", "≤ 0.5"),
    ("C30U C46U A65C", 0.658),
    ("C29U C31A A40C G52A C61A", "≤ 0.5"),
    ("C31U G39C G58A", 0.552),
    ("A36U G56C", 0.563),
    ("U28C A42C A43C C55G A57G", "≤ 0.5"),
    ("G6C A40G C66U", "≤ 0.5"),
    ("C4G U32A", 0.864),
    ("A37C G48A", 0.779),
    ("U35G A57C A70C", "≤ 0.5"),
    ("C22A C33U U54G", "≤ 0.5"),
    ("U28G U59A A70C", "≤ 0.5"),
    ("C5A U35C G44A G48C C55A", "≤ 0.5"),
    ("U16A G17C A43U A45C C46A C62G", "≤ 0.5"),
    ("G10C A15U C29G C46U G51C C61G", "≤ 0.5"),
    ("G17C U19C A20G G68U", "≤ 0.5"),
    ("A45G G67C", 0.872),
    ("G18C C22A C29U A45C", "≤ 0.5"),
    ("C11G G12C U54A C60A A69C", 0.557),
    ("C5U G18A G25C A69C", "≤ 0.5"),
    ("A15U A45U C46G", "≤ 0.5"),
    ("C24G G25C C66A", "≤ 0.5"),
    ("C4G G6C G9A A20G C55A C61A", 0.615),
]

The measured values listed here are drawn from the RNAGym collection of RNA variant scans (doi:10.1126/science.aae0568).
